Just for reference, patent US20240294551A1 is where these values come from.

Target system: His-tagged KRAS G12D protein (Homo sapiens (Human), UniProt P01116, G12D)
Sequence (P01116 other isoform, or with tags, fused parts or gaps G12D): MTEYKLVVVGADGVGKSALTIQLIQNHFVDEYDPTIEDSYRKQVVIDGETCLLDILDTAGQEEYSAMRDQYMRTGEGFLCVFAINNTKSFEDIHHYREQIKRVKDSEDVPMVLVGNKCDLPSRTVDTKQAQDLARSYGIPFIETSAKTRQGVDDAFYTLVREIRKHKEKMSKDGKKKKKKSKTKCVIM
Method summary: KRAS G12D TR-FRET Assay
Format: binding
Stated conditions: read-out: KRAS G12D Binding IC50
pIC50: −log10 of the molar value.
Value type: pIC50

(I) Fc1c2ncc3c(nc(OC[C@@]45CCCN4C[C@H](F)C5)nc13)N1CCC[C@@H](Cc3ncc(o3)CCc3c(Cl)cc4[nH]ncc4c3-2)C1 [Example 231]
(II) O=S1(=O)CCCCc2c(Cl)cc3[nH]ncc3c2-c2ncc3c(nc(OC[C@@]45CCCN4C[C@H](F)C5)nc3c2F)N2CCC[C@H](C2)C1 [Example 145]
(III) Fc1c2ncc3c(nc(OC[C@@]45CCCN4C[C@H](F)C5)nc13)N1CC[C@@H](COCCCCc3c(Cl)cc4[nH]ncc4c3-2)C1 [Example 254]
(IV) COc1nc2c3cnc(c(F)c3n1)-c1cc(O)cc3ccc(F)c(c13)CCCC(=O)N[C@]1(C)CCCN2C1 [Example 6, bis(2,2,2-trifluoroacetate)]
(V) CN1CCC[C@H]1COc1nc2c3cnc(c(F)c3n1)-c1c(c(Cl)cc3[nH]ncc13)CCCOC(=O)O[C@@]1(C)COCCN2C1 [Example 180]
Input: Order field: pIC50 | Direction: descending (largest first) # format: label list in the order the request specifies
Output: I, III, II, IV, V

====

Target system: GDP-bound KRAS protein (aa 1-169), containing both G12D and C118A amino acid substitutions (Homo sapiens (Human), UniProt P01116, C118A/G12D)
Sequence (P01116 other isoform, or with tags, fused parts or gaps G12D/C118A): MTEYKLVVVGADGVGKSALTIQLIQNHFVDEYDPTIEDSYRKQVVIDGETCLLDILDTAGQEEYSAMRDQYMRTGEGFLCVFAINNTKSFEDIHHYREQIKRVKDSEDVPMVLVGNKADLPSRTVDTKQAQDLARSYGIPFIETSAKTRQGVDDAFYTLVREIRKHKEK
Method summary: KRAS G12D Coupled Nucleotide Exchange Assay
Type: biochemical
Stated conditions: read-out: KRAS G12D Coupled Exchange IC50
pIC50: −log10 of the molar value.
Value type: pIC50

Input: Let me know recorded pIC50 for `O=C1CCCc2c(F)ccc3cccc(c23)-c2ncc3c(nc(OC[C@@]45CCCN4C[C@H](F)C5)nc3c2F)N2CCOC[C@H](C2)O1` , thanks.
Output: 6.71

(a) Fc1c2ncc3c(nc(OC[C@@]45CCCN4C[C@H](F)C5)nc13)N1CCCCC(COCCCCc3c(Cl)cc4[nH]ncc4c3-2)C1 (stereo partly drawn)
(b) CN1C(=O)CCCCc2c(Cl)cc3[nH]ncc3c2-c2ncc3c(nc(OC[C@@]45CCCN4C[C@H](F)C5)nc3c2F)N2CCC[C@@H]1C2
Input: Larger number for pIC50: a , or b ? # answer = label of selected item
Output: a
(a: 9.00, b: 8.40)

====

Target system: GDP-bound KRAS protein (aa 1-169), containing both G12D and C118A amino acid substitutions (Homo sapiens (Human), UniProt P01116, C118A/G12D)
Method summary: KRAS G12D Coupled Nucleotide Exchange Assay
Format: biochemical
Stated conditions: read-out: KRAS G12D Coupled Exchange IC50
Value type: IC50 (nM)

Input: Let me know recorded IC50 for O=C1OC[C@@H]2C[C@@H]2c2c(Cl)cc3[nH]ncc3c2-c2ncc3c(nc(OC[C@@]45CCCN4C[C@H](F)C5)nc3c2F)N2CCC[C@H](C2)O1 [Example 45, bis(2,2,2-trifluoroacetate)] , thanks.
Output: 1

(P) CN1CCO[C@@H](COc2nc3c4cnc(c(F)c4n2)-c2c(c(Cl)cc4[nH]ncc24)CCCOC(=O)O[C@@H]2COCCN3C2)C1
(Q) O=C1OCCCc2c(Cl)cc3[nH]ncc3c2-c2ncc3c(nc(OC[C@@]45CCCN4C[C@H](F)C5)nc3c2F)N2CCOC[C@@](CF)(C2)O1
(R) O=C1CCCc2c(F)ccc3cccc(c23)-c2ncc3c(nc(OC[C@@]45CCCN4C[C@H](F)C5)nc3c2F)N2CC[C@H]3CCN1[C@H]3C2
Input: Order the records by IC50, with each subsequent value no larger than the one before. # format: label list in the order the request specifies
Output: Q, P, R
(Q: 1490 nM, P: 15 nM, R: 1 nM)

====

Target system: GDP-bound KRAS protein (aa 1-169), containing both G12D and C118A amino acid substitutions (Homo sapiens (Human), UniProt P01116, C118A/G12D)
Method summary: KRAS G12D Coupled Nucleotide Exchange Assay
Assay type: biochemical
Stated conditions: read-out: KRAS G12D Coupled Exchange IC50
Value type: IC50 (nM)

Input: Let me know recorded IC50 for `O=C1OCCc2c(Cl)cc3[nH]ncc3c2-c2cc3nc(OC[C@@]45CCCN4C[C@H](F)C5)nc(c3nn2)N2CCC[C@]3(C2)C[C@H](C3)O1` , thanks.
Output: 10

(A) Fc1c2ncc3c(nc(OC[C@@]45CCCN4C[C@H](F)C5)nc13)N1CCC[C@@H](C1)c1coc(n1)CCCc1c(Cl)cc3[nH]ncc3c1-2
(B) Fc1c2ncc3c(nc(OC[C@@]45CCCN4C[C@H](F)C5)nc13)N1CCCC(Cc3ncn(n3)CCc3c(Cl)cc4[nH]ncc4c3-2)C1 (stereo partly drawn)
(C) Cc1cc2[nH]ncc2c2c1CCC[C@@H](F)C(=O)N(C)[C@@H]1CCCN(C1)c1nc(OC[C@@]34CCCN3C[C@H](F)C4)nc3c(F)c-2ncc13
(D) Fc1c2ncc3c(nc(OC[C@@]45CCCN4C[C@H](F)C5)nc13)N1CCOCC(C1)Cn1ncc(n1)/C=C\c1c(Cl)cc3[nH]ncc3c1-2 (stereo partly drawn)
Input: Order the records by IC50, with each subsequent value no larger than the one before. # format: label list in the order the request specifies
Output: A, B, C, D
(A: 344 nM, B: 18 nM, C: 12 nM, D: 6 nM)

====

Target system: His-tagged KRAS G12D protein (Homo sapiens (Human), UniProt P01116, G12D)
Method summary: KRAS G12D TR-FRET Assay
Format: binding
Stated conditions: read-out: KRAS G12D Binding IC50
Value type: IC50 (nM)

# example entries with known answers
Input: Let me know recorded IC50 for O=C1OC/C=C\c2c(Cl)cc3[nH]ncc3c2-c2ncc3c(nc(OC[C@@]45CCCN4C[C@H](F)C5)nc3c2F)N2CCC[C@H](C2)O1 (single isomer, unassigned) , thanks.
Output: 5

Input: Let me know recorded IC50 for O=C1OC/C=C/c2c(Cl)cc3[nH]ncc3c2-c2ncc3c(nc(OC[C@@]45CCCN4C[C@H](F)C5)nc3c2F)N2CCC[C@H](C2)O1 (single isomer, unassigned) , thanks.
Output: 17

Input: Let me know recorded IC50 for `O=C1N[C@H]2CN(C[C@H]3C[C@H]32)c2nc(OC[C@@]34CCCN3C[C@H](F)C4)nc3c(F)c(ncc23)-c2c(c(Cl)cc3[nH]ncc23)CCC[C@H]1F` , thanks.
Output: 1570

Input: Let me know recorded IC50 for `O=C1COCCc2c(Cl)cc3[nH]ncc3c2-c2ncc3c(nc(OC[C@@]45CCCN4C[C@H](F)C5)nc3c2F)N2CCC[C@H](C2)O1` , thanks.
Output: 12

Input: Let me know recorded IC50 for `Cc1cc2[nH]ncc2c2c1CCOC(=O)OC[C@H]1CN(CCO1)c1nc(OC[C@@]34CCCN3C[C@H](F)C4)nc3c(F)c-2ncc13` , thanks.
Output: 4

(I) O=C1OCCCc2c(Cl)cc3[nH]ncc3c2-c2ncc3c(nc(OC[C@@]45CCCN4C[C@H](F)C5)nc3c2F)N2C[C@H]3C[C@H]3[C@H](C2)O1 (racemic)
(II) O=C1N[C@@H]2CCCCN(C2)c2nc(OC[C@@]34CCCN3C[C@H](F)C4)nc3c(F)c(ncc23)-c2c3c(cc4[nH]ncc24)CC[C@H]3CCO1
(III) Fc1c2ncc3c(nc(OC[C@@]45CCCN4C[C@H](F)C5)nc13)N1CCOCC(C1)Cn1ncc(n1)/C=C\c1c(Cl)cc3[nH]ncc3c1-2 (stereo partly shown)
Input: Sort the compounds on IC50; start with the lowest figure. # format: label list in the order the request specifies
Output: II, I, III
(II: 5 nM, I: 9 nM, III: 13 nM)

(a) Fc1c2ncc3c(nc(OC[C@@]45CCCN4C[C@H](F)C5)nc13)N1CCC[C@]3(C1)C[C@H](C3)OCCCCc1c(Cl)cc3[nH]ncc3c1-2
(b) O=C1OCCCc2c(Cl)cc(O)cc2-c2ncc3c(nc(OC[C@@]45CCCN4C[C@H](F)C5)nc3c2F)N2CCOC[C@H](C2)O1
(c) Cc1cc2[nH]ncc2c2c1C/C=C\COC[C@@H]1CCCN(C1)c1nc(OC[C@@]34CCCN3C[C@H](F)C4)nc3c(F)c-2ncc13
(d) Fc1c2ncc3c(nc(OC[C@@]45CCCN4C[C@H](F)C5)nc13)N1CCC[C@@H](C1)c1coc(n1)CCCc1c(Cl)cc3[nH]ncc3c1-2
Input: Order the records by IC50, with each subsequent value no larger than the one before. # format: label list in the order the request specifies
Output: d, c, a, b
(d: 583 nM, c: 6 nM, a: 4 nM, b: 2 nM)
